- System: EIF2AK1;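 also: KINOMEscan kinase panel screen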
- recorded_conditions: concentration: 1 μM, replicates: in singlicate; n = 1
Hi there, I'd appreciate the recorded %Inh for every entry that follows.
Answers are plain numbers, in %.

>>> df
                            compound_smiles  value_kind  assay_result
0  Cl.c1ccc(Cn2ccc3cc(Nc4ncnc5ccccc45)ccc32)cc1        %Inh             5
1  Cc1cccc(-c2nc(Nc3ccc4[nH]nnc4c3)c3ccccc3n2)n1        %Inh             0
2  Cl.Cn1ccc(-c2cccc(Nc3ccnc4cc(-c5nccs5)ccc34)c2)n1        %Inh             0
3  Cl.O=S(=O)(c1cccc(F)c1)c1ccc(Nc2ncnc3cc(Br)sc23)cc1Cl        %Inh             0

Quick batch: %Inh for everything below.
1. CNc1nccc(-c2c(-c3ccc(F)cc3)ncn2C2CCN(C)CC2)n1
2. Clc1cccc(-c2nc(Nc3ccncc3)c3ccccc3n2)c1
3. Cl.Cl.c1ccc(-c2cc3ccncc3cc2OC2CCNCC2)cc1
4. COc1ccc(NC(=O)Nc2ccc(C)c(-c3ccc(C(=O)Nc4ccncc4)cc3)c2)cc1
5. CCc1nc(-c2cccc(N(C)S(=O)(=O)c3ccccc3)c2)c(-c2ccnc(Nc3ccc(N4CCN(C(C)=O)CC4)nc3)n2)s1

Out:
0
0
13
0
0
